Type: in vivo, mouse
MEASUREMENT SETUP: both, F1.Scn1a+/−, mouse, in vivo, Plasma Concentration, 3 mg/kg i.p., 60 min; F1.Scn1a^+/− mice
QUANTITY MEASURED: concentration at 60 min (ng/mL)
Return type: number; implicit unit ng/mL.

Lookup result for O=C(OC(C(F)(F)F)C(F)(F)F)N1CCN(Cc2ccc(C(F)(F)F)cc2N2CCCC2)CC1 ; measured concentration at 60 min: 198

====

ASSAY PROTOCOL: Pharmacokinetic analysis in mouse plasma and brain after i.p. injection
Assay type: in vivo
MEASUREMENT SETUP: mouse, in vivo, ip, 5 mg/kg
QUANTITY MEASURED: half-life (min)
Return type: number; implicit unit min.

Lookup result for O=C(OC(C(F)(F)F)C(F)(F)F)N1CCN(Cc2ccc(C(F)(F)F)cc2N2CCCC2)CC1 ; measured half-life: 47

====

ASSAY PROTOCOL: Pharmacokinetic analysis in mouse plasma and brain after i.p. injection
Format: in vivo
MEASUREMENT SETUP: mouse, in vivo, ip, 5 mg/kg, Cmax
QUANTITY MEASURED: Cmax
Report the figure along with its unit, number first.

Lookup result for O=C(OC(C(F)(F)F)C(F)(F)F)N1CCN(Cc2ccc(C(F)(F)F)cc2N2CCCC2)CC1 ; measured Cmax: 468 ng/mL
